METHOD_DESCRIPTION: activity coefficient (dimensionless); of the first substance listed, at infinite dilution; xn = mol fraction of the nth substance listed
ASSAY_CONDITIONS: 323.15 K; Liquid; Chromatography; x1 = 0
RECORDED_METRIC: activity coefficient

Per the record, ClCCl [dichloromethane] + CCCCCCCCn1cc[n+](COCCCOC[n+]2ccn(CCCCCCCC)c2C)c1C.O=S(=O)([N-]S(=O)(=O)C(F)(F)F)C(F)(F)F.O=S(=O)([N-]S(=O)(=O)C(F)(F)F)C(F)(F)F has activity coefficient of 0.3

Per the record, Cc1ccccc1C [1,2-dimethylbenzene] + CN(C)c1cc[n+](COCCCOC[n+]2ccc(N(C)C)cc2)cc1.O=S(=O)([N-]S(=O)(=O)C(F)(F)F)C(F)(F)F.O=S(=O)([N-]S(=O)(=O)C(F)(F)F)C(F)(F)F has activity coefficient of 1.18

Per the record, CCC(C)=O [butanone] + Cn1cc[n+](COCCCOC[n+]2ccn(C)c2)c1.N#C[N-]C#N.N#C[N-]C#N has activity coefficient of 1.7

Per the record, CCCCCCCCCC [decane] + CCCOC[n+]1ccn(Cc2ccccc2)c1.F[B-](F)(F)F has activity coefficient of 244

Per the record, ClC(Cl)(Cl)Cl [tetrachloromethane] + CCCOC[n+]1ccn(C)c1.F[B-](F)(F)F has activity coefficient of 8.91

Per the record, CC#N [acetonitrile] + CCCOC[n+]1ccn(Cc2ccccc2)c1.F[B-](F)(F)F has activity coefficient of 0.63

Per the record, CCO [ethanol] + CCCOC[n+]1ccn(C)c1.N#C[N-]C#N has activity coefficient of 0.74

Per the record, c1ccccc1 [benzene] + CCCOC[n+]1ccn(Cc2ccccc2)c1.F[B-](F)(F)F has activity coefficient of 2.01

Per the record, ClCCl [dichloromethane] + Cn1cc[n+](COCCCOC[n+]2ccn(C)c2)c1.N#C[N-]C#N.N#C[N-]C#N has activity coefficient of 0.73

Per the record, Cc1ccc(C)cc1 [1,4-dimethylbenzene] + CCCCCCCCn1cc[n+](COCCC)c1C.O=S(=O)([N-]S(=O)(=O)C(F)(F)F)C(F)(F)F has activity coefficient of 1.02

Per the record, C1CCCCCC1 [cycloheptane] + CCCOC[n+]1ccc(N(C)C)cc1.O=S(=O)([N-]S(=O)(=O)C(F)(F)F)C(F)(F)F has activity coefficient of 18.6

Per the record, C[N+](=O)[O-] [nitromethane] + CCCOC[n+]1ccn(C)c1.O=S(=O)([N-]S(=O)(=O)C(F)(F)F)C(F)(F)F has activity coefficient of 0.55

Per the record, CCc1ccccc1 [ethylbenzene] + CCCCCCCCn1cc[n+](COCCC)c1C.N#C[N-]C#N has activity coefficient of 1.48

Per the record, C1COCCO1 [1,4-dioxane] + CCCOC[n+]1ccn(Cc2ccccc2)c1.O=S(=O)([N-]S(=O)(=O)C(F)(F)F)C(F)(F)F has activity coefficient of 0.4

Per the record, CCC[N+](=O)[O-] [1-nitropropane] + CCCOC[n+]1ccn(Cc2ccccc2)c1.O=S(=O)([N-]S(=O)(=O)C(F)(F)F)C(F)(F)F has activity coefficient of 0.53

Per the record, CCCCO [butan-1-ol] + Cn1cc[n+](COCCCOC[n+]2ccn(C)c2)c1.O=S(=O)([N-]S(=O)(=O)C(F)(F)F)C(F)(F)F.O=S(=O)([N-]S(=O)(=O)C(F)(F)F)C(F)(F)F has activity coefficient of 2.02

Per the record, CO [methanol] + CCCOC[n+]1ccn(C)c1.O=S(=O)([N-]S(=O)(=O)C(F)(F)F)C(F)(F)F has activity coefficient of 1.2

Per the record, CCC(C)CC [3-methylpentane] + CCCCCCCCn1cc[n+](COCCCOC[n+]2ccn(CCCCCCCC)c2C)c1C.N#C[N-]C#N.N#C[N-]C#N has activity coefficient of 3.48

Per the record, CCC[N+](=O)[O-] [1-nitropropane] + N#C[N-]C#N.N#C[N-]C#N.c1ccc(Cn2cc[n+](COCCCOC[n+]3ccn(Cc4ccccc4)c3)c2)cc1 has activity coefficient of 1.76

Per the record, CC1CCCCC1 [methylcyclohexane] + CCCOC[n+]1ccn(C)c1.F[B-](F)(F)F has activity coefficient of 76

Per the record, CC(C)CO [2-methyl-1-propanol] + Cn1cc[n+](COCCCOC[n+]2ccn(C)c2)c1.N#C[N-]C#N.N#C[N-]C#N has activity coefficient of 1.94

Per the record, CCCC(C)=O [pentan-2-one] + CCCOC[n+]1ccn(Cc2ccccc2)c1.N#C[N-]C#N has activity coefficient of 1.45

Per the record, CCCCCCCCC [nonane] + CCCCCCCCn1cc[n+](COCCC)c1C.O=S(=O)([N-]S(=O)(=O)C(F)(F)F)C(F)(F)F has activity coefficient of 7.93

Per the record, c1ccccc1 [benzene] + CCCCCCCCn1cc[n+](COCCCOC[n+]2ccn(CCCCCCCC)c2C)c1C.O=S(=O)([N-]S(=O)(=O)C(F)(F)F)C(F)(F)F.O=S(=O)([N-]S(=O)(=O)C(F)(F)F)C(F)(F)F has activity coefficient of 0.42

Per the record, Cc1ccccc1 [toluene] + CCCCCCCCn1cc[n+](COCCC)c1C.N#C[N-]C#N has activity coefficient of 1.43

Per the record, CCCCCC [hexane] + CCCCCCCCn1cc[n+](COCCC)c1C.O=S(=O)([N-]S(=O)(=O)C(F)(F)F)C(F)(F)F has activity coefficient of 3.82

Per the record, CCCCCCCCCCCCC [tridecane] + CCCOC[n+]1ccn(C)c1.F[B-](F)(F)F has activity coefficient of 1640
